Ref: PubChem BioAssay (NCI)

Listed below: TGI values for each entry.
System: T-47D breast
Assay: NCI tumour cell line growth inhibition, 48 h

{"columns": ["Compound", "TGI"],
 "data": [
  ["c1nncn1C12C3C4C5C3C1C5C42 (centres undefined)", "> 100 µM"],
  ["C=C1C(=O)O[C@@H]2C1C[C@@H](O)/C(C)=C/C/C=C(\\C)CCC[C@H](C)[C@H]2OC(C)=O (some centres undefined)", "> 100 µM"],
  ["Nc1nc(Nc2ccc3c(c2)CC[C@@H](N2CCCC2)CC3)nn1-c1cc2c(nn1)-c1ccccc1CCC2", "5.1 µM"],
  ["O=C(Nc1ccc(-n2cc(-c3ccncc3)c(-c3ccc(O)c(Cl)c3)n2)cc1)c1cc(Cl)cc(Cl)c1", "> 32.5 µM"],
  ["N#CC1=C(N)OC2=C(COc3ccc(F)cc32)C1c1ccc(Cl)cc1 (centres undefined)", "> 100 µM"],
  ["CCSCC(=O)N1CCc2c([nH]c3ccccc23)C1=O", "> 100 µM"],
  ["C/C=C1\\CN2CCC34c5ccccc5N(C)C35OCC4(C(=O)OC)C1CC25 (centres undefined)", "75.7 µM"],
  ["C=C1C[C@@H]2C/C=C/C(=O)C/C(C)=C\\C=C\\C(=O)O[C@H](C=O)C/C(C)=C/[C@H](C1)O2", "54.3 µM"],
  ["CC1(C)OC[C@@H]([C@@]2(CO[Si](C)(C)C(C)(C)C)CC=CC(=O)O2)O1", "> 100 µM"]
]}

###

Tested on: SK-OV-3 ovarian
Assay: NCI tumour cell line growth inhibition, 48 h
Listed below: TGI values for each entry.
Measure: TGI

{"columns": ["Molecule", "Measure", "Reported result"],
 "data": [
  ["COc1ccc(-c2cc(C3CC3)nc(SCC(=O)O)c2C#N)cc1", "TGI", "> 100 µM"],
  ["COc1ccc2c([nH]c3cc(O)c(C)cc32)c1C=O", "TGI", "> 25 µM"],
  ["O=C(Nc1ccc(Cl)cc1)c1cccc([N+](=O)[O-])c1O", "TGI", "13.7 µM"],
  ["CCOC(O)C(F)(F)F (configuration not stated)", "TGI", "> 100 µM"],
  ["[N-]=[N+]=NC1=NNC2(C(=O)N1)c1ccccc1-c1ccccc12", "TGI", "> 100 µM"],
  ["Cc1ccccc1CN1CC2=C(CCN(Cc3ccccc3)C2=O)N2CCN=C12", "TGI", "> 52.6 µM"],
  ["CC(=O)Nc1ccc(N2C(=O)CS(=O)(=O)C2c2cccc(Oc3ccccc3)c2)cc1 (configuration not stated)", "TGI", "83.1 µM"],
  ["S=c1[nH]c(=S)c2sc(=S)n(-c3ccccc3)c2[nH]1", "TGI", "> 100 µM"],
  ["COc1cc(Cl)cc(-c2nn(C(=O)NCCN3CCN(C)CC3)cc2-c2ccncc2)c1", "TGI", "28.8 µM"],
  ["NNC(=Nc1ccccc1)SCc1ccccc1", "TGI", "> 100 µM"],
  ["O=C(Nc1ccc(-n2cc(-c3ccncc3)c(-c3ccc(Cl)c(O)c3)n2)cc1)Nc1cc(C(F)(F)F)cc(C(F)(F)F)c1", "TGI", "5.43 µM"],
  ["Cc1ccccc1C(=O)C#Cc1cn(C2CC(O)C(CO)O2)c(=O)[nH]c1=O (configuration not stated)", "TGI", "> 100 µM"],
  ["O=C1CCCCCCCC/C=C/CCC(c2ccco2)O1 (configuration not stated)", "TGI", "> 100 µM"],
  ["O=C1c2n[nH]nc2C(=O)c2n[nH]nc21", "TGI", "> 100 µM"],
  ["COc1ccc(/C=C2\\CN(C(=O)C(Cl)Cl)C/C(=C\\c3ccc(OC)c(OC)c3)C2=O)cc1OC", "TGI", "> 100 µM"],
  ["CCN(CC)c1ccc(/C=c2\\nc(-c3ccccc3)n3c2nc2ccccc23)cc1", "TGI", "> 100 µM"],
  ["OCC(O)C(O)C(O)C1SC(c2ccccc2)=NN1c1ccccc1 (configuration not stated)", "TGI", "76.9 µM"],
  ["CCCc1ccc(S(=O)(=O)N[C@H]2CC[C@H]3[C@@H]4CCc5cc(O)ccc5[C@H]4CC[C@]23C)cc1", "TGI", "12.4 µM"],
  ["COc1c(C)c2c(c(O)c1C/C=C(\\C)CCC(=O)OCCN1CCOCC1)C(=O)OC2", "TGI", "> 100 µM"],
  ["NCCCC(=O)Nc1ccncc1", "TGI", "> 100 µM"],
  ["c1nncn1C12C3C4C5C3C1C5C42 (configuration not stated)", "TGI", "> 100 µM"],
  ["COc1ccc(/C=C\\c2cc(OC)c(OC)c(OC)c2)cc1OC(=O)C(N)CCC(=O)O (configuration not stated)", "TGI", "> 100 µM"]
]}

###

Test system: NCI/ADR-RES ovarian
Test: NCI tumour cell line growth inhibition, 48 h
Listed below: TGI values for each entry.

{"columns": ["Molecule", "Unit name", "Readout relation", "TGI"],
 "data": [
  ["O=C(CCCC1Cc2ccccc2C1=O)c1ccccc1 (stereo not given)", "µM", "=", 84.6],
  ["Cc1ccc(S(=O)(=O)NC(=O)NC(Cc2ccccc2)C(=O)O)cc1 (stereo not given)", "µM", ">", 100],
  ["C=C1C(=O)O[C@@H]2C1C[C@@H](O)/C(C)=C/C/C=C(\\C)CCC[C@H](C)[C@H]2OC(C)=O (stereo not given in full)", "µM", ">", 100],
  ["CN(NC(=O)CC(=O)NN(C)C(=S)c1ccccc1)C(=S)c1ccccc1", "µM", ">", 100],
  ["C=C1CC[C@@]2(C#N)[C@H]3[C@H](CC[C@@H]2C)[C@@H](C)C[C@@H](CC(C)(C)C#N)[C@H]13", "µM", "=", 24.6]
]}

###

Tested on: K-562 leukemia
Assay: NCI tumour cell line growth inhibition, 48 h; in the data active means GI50 below about 0.43 µM; inactive means the rest
Outcome codes: active, inactive

{"columns": ["Compound", "Category"],
 "data": [
  ["COc1ccc(CNc2nc3cc(N)cc(N)c3nc2-c2ccccc2)cc1OC", "inactive"],
  ["CC(=O)C1CC2(c3ccc(C)cc3)C(c3ccc(C)cc3)=C(c3ccc(C)cc3)C1(c1ccc(C)cc1)S2=O (stereo not drawn)", "inactive"],
  ["O=C(NC1CC1)c1ccc(-c2nc3ccc4[nH]ncc4c3c3c2CCCC3)cc1", "inactive"],
  ["CCOC(=O)Cc1csc(/N=C2\\NC(=O)/C(=C3\\C(=O)N(C)c4ccccc43)S2)n1", "inactive"],
  ["O=C(Nc1ccc(-n2cc(-c3ccncc3)c(-c3ccc(O)c(Cl)c3)n2)cc1)c1cc(Cl)cc(Cl)c1", "inactive"],
  ["NCCCC(=O)Nc1ccncc1", "inactive"],
  ["c1ccc2[nH]c(SSc3nc4ncncc4[nH]3)nc2c1", "active"],
  ["COc1ccc2nc(-c3ccccc3)cc(Nc3ccc(C(C)=O)cc3)c2c1", "inactive"],
  ["COc1cc(C(=O)O[C@H](C(=O)NCCNC(=O)[C@@H](OC(=O)c2cc(OC)cc3c(C)cccc23)[C@]2(C)CO2)[C@]2(C)CO2)c2cccc(C)c2c1", "active"],
  ["COC(=O)COc1ccc(/C=C2\\N=C(c3ccccc3)N(c3cc(C(F)(F)F)ccc3Cl)C2=O)cc1", "inactive"],
  ["COc1ccc(/C=C2\\CN(C(=O)C(Cl)Cl)C/C(=C\\c3ccc(OC)c(OC)c3)C2=O)cc1OC", "active"],
  ["CCC1=C[C@@H]2CN(C1)Cc1c([nH]c3ccccc13)[C@@](C(=O)OC)(c1cc3c(cc1OC)N(C=O)[C@H]1[C@@](O)(C(=O)OC)[C@H](OC(C)=O)[C@]4(CC)[C@@H]5C[C@@H]5CN5CC[C@]31[C@@H]54)C2", "active"],
  ["Fc1ccc(Oc2nccc(-c3c(-c4ccc(F)cc4)ncn3C3CCNCC3)n2)cc1", "inactive"]
]}

###

Tested on: CCRF-CEM leukemia
Assay: NCI tumour cell line growth inhibition, 48 h
Listed below: TGI values for each entry.

{"columns": ["Compound", "TGI"],
 "data": [
  ["Nc1nc2cc(CNc3ccc(C(=O)O)cc3)ccc2nc1-c1ccccc1", "> 100 µM"],
  ["Cc1ccc(C2(N3CCCC3)OC(C)(C)c3cccc4cccc2c34)cc1 (centres undefined)", "> 100 µM"],
  ["COc1ccc2c(c1)c(=O)c1c(NCCCN(C)CCCNc3ccc4c(=O)n(CCN(C)C)c(=O)n5c6ccc(OC)cc6c(=O)c3c45)ccc3c(=O)n(CCN(C)C)c(=O)n2c31", "0.049 µM"],
  ["Cc1cc(C)c(O)c(CNCCCCCCNCc2cc(C)cc(C)c2O)c1", "5.72 µM"],
  ["CC(=O)Nc1ccc(N2C(=O)CS(=O)(=O)C2c2cccc(Oc3ccccc3)c2)cc1 (centres undefined)", "> 100 µM"],
  ["NNC(=O)Cc1cccnc1", "> 100 µM"],
  ["O=C1CCCCCCCC/C=C/CCC(c2ccco2)O1 (centres undefined)", "> 100 µM"],
  ["CN(C)CCCN=C(N)N", "> 100 µM"],
  ["O=[N+]([O-])c1ccc(-c2nc(N(CCO)CCO)c3ccccc3n2)o1", "64.1 µM"],
  ["N/N=C(\\CC1OC(=O)c2ccccc21)c1ccco1 (centres undefined)", "> 100 µM"],
  ["CCn1nc(-c2ccccc2)c2c1N(C)c1ccccc1-n1c(-c3ccccc3)nnc1-2", "> 100 µM"],
  ["Cn1nc(-c2ccccc2)c(N=[N+]=[N-])cc1=O", "> 100 µM"],
  ["CC(C)=CCC/C(=C\\CC/C(=C\\CCc1ccoc1)C(=O)O)C(=O)O", "> 100 µM"],
  ["Cc1ccc2ccc(=O)oc2c1", "> 100 µM"],
  ["O=C(Nc1ccc(-n2cc(-c3ccncc3)c(-c3ccc(O)c(Cl)c3)n2)cc1)c1cc(Cl)cc(Cl)c1", "> 32.5 µM"],
  ["CC(C)=NNc1cnnc2ccc([N+](=O)[O-])cc12", "> 100 µM"],
  ["CC(C)(C)C(=O)Nc1ccccc1I(=O)=O", "> 100 µM"],
  ["Cc1ccccc1C(=O)C#Cc1cn(C2CC(O)C(CO)O2)c(=O)[nH]c1=O (centres undefined)", "67.3 µM"],
  ["C\\C=C/C=C/C=C/C(=O)O", "> 100 µM"],
  ["FC(F)(F)c1cccc(COCCN2CCN(Cc3cccc(C(F)(F)F)c3)CC2)c1", "46.6 µM"],
  ["CC(=O)c1cc2c(s1)C(=O)c1scc(C(C)=O)c1C2=O", "0.59 µM"],
  ["CCN1C(=O)N(CC)C2C1NN=c1s/c(=C3\\C(=O)N(CC(C)C)c4ccccc43)c(=O)n12 (centres undefined)", "> 100 µM"],
  ["O=C1OC(C2Cc3ccccc3C2=O)c2ccccc21 (centres undefined)", "> 100 µM"],
  ["COc1ccc(C2S/C(=C\\c3cc(OC)c(OC)c(OC)c3)C(=O)N2NC(=O)Cc2ccccc2)cc1 (centres undefined)", "> 100 µM"],
  ["CCOC(=O)/C(=C\\c1ccc(OCc2ccccc2)c(OC)c1)C(=O)c1ccccc1", "58.5 µM"],
  ["N#Cc1ccccc1NC(=O)/C(=N\\NC(=O)c1ccncc1)C(c1cnc2ccc([N+](=O)[O-])cc2n1)[N+](=O)[O-] (centres undefined)", "> 100 µM"],
  ["COc1ccc(/C=C\\c2cc(OC)c(OC)c(OC)c2)cc1OC(=O)C(N)CCC(=O)O (centres undefined)", "> 100 µM"],
  ["O=C1C(=Cc2ccco2)C(=O)C2CCCCC12 (centres undefined)", "> 100 µM"],
  ["COc1cc(NC(=O)c2cc(OC)c3ccn(C)c3c2)cc2c1C[C@]1(C)CC[C@@H](O)C(C)(C)[C@H]1O2", "> 100 µM"],
  ["c1ccc2[nH]c(SSc3nc4ncncc4[nH]3)nc2c1", "> 100 µM"],
  ["OC12C3C4CC5C(C4[C@@H]1Br)C2[C@@](O)(c1c(F)c(F)c(F)c(F)c1F)C53 (some centres undefined)", "> 100 µM"],
  ["NCCCN(CCCN)CCCNCc1c2ccccc2c(CNCCCN(CCCN)CCCN)c2ccccc12", "> 100 µM"],
  ["O=C(CCCC1Cc2ccccc2C1=O)c1ccccc1 (centres undefined)", "> 100 µM"],
  ["CC(=O)Nc1nc(SCc2ccccc2)c2ncn(C(C)=O)c2n1", "> 100 µM"],
  ["COc1ccc(C2c3cc4c(cc3OC(NNC(N)=O)C2C)OCO4)cc1 (centres undefined)", "> 29.4 µM"],
  ["CN(C)c1ccc(/C=N/n2c(-c3ccccc3)nc3ccccc3c2=O)cc1", "> 100 µM"],
  ["OCC(O)C(O)C(O)C1SC(c2ccccc2)=NN1c1ccccc1 (centres undefined)", "> 100 µM"],
  ["CC1(CO)OC1COCc1ccccc1 (centres undefined)", "> 100 µM"],
  ["Cc1ccccc1CN1CC2=C(CCN(Cc3ccccc3)C2=O)N2CCN=C12", "> 100 µM"],
  ["CC(C)=CC(=O)Oc1ccc([N+](=O)[O-])cc1", "> 100 µM"],
  ["Cc1cccc(C)c1NC(=O)/C(Cl)=C(/Cl)C(=O)O", "14.1 µM"],
  ["CC(=O)NC1=C(Nc2ccc(C)cc2)C(=O)c2ccccc2C1=O", "58.4 µM"],
  ["O=C(Nc1ccc(Cl)cc1)c1cccc([N+](=O)[O-])c1O", "11.7 µM"],
  ["COc1ccc(CNc2nc3cc(N)cc(N)c3nc2-c2ccccc2)cc1OC", "71.5 µM"]
]}
